# Test target: Poly [ADP-ribose] polymerase tankyrase-2 (Homo sapiens)
# Sequence (Q9H2K2 whole entry): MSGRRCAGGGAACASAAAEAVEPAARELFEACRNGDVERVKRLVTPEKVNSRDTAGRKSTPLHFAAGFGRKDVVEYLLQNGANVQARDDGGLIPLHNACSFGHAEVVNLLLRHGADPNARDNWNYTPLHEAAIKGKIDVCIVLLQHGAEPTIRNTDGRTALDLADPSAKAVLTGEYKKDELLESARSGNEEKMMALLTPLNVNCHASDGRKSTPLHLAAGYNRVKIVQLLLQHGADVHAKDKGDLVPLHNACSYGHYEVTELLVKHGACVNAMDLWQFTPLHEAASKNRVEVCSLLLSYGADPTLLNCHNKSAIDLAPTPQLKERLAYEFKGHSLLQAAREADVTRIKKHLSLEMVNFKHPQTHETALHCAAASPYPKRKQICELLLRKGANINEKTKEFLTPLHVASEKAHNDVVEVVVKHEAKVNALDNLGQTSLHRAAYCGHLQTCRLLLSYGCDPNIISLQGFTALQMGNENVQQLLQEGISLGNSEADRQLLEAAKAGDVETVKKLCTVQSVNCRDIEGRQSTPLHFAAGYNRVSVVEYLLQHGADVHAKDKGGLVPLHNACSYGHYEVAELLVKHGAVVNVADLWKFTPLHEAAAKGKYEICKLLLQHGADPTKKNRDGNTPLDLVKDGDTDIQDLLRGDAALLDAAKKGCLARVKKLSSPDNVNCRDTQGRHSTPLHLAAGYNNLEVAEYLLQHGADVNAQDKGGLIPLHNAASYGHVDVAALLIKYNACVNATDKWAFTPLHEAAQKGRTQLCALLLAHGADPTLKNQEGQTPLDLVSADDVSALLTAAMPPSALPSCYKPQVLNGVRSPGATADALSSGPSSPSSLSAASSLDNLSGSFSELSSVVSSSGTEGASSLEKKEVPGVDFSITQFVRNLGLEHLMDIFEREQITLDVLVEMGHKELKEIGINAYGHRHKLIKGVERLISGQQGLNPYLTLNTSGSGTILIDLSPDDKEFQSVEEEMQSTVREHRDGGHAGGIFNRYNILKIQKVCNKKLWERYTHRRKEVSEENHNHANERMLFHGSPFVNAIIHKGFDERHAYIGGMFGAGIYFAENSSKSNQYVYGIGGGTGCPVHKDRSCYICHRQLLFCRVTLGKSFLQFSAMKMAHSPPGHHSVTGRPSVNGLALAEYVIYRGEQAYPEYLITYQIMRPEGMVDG
# Test description: Inhibition of TNKS2 (unknown origin) using biotinylated NAD as substrate assessed as inhibition of autoPARsylation activity incubated for 1 hr by ELISA
pIC50: −log10 of the molar value.
Quantity kind: pIC50

Some molecules with known pIC50 results, for comparison:
Cc1ccc2c(=O)[nH]c(-c3ccc(C4(O)COC4)cc3)cn12: 8.74
Cc1ccc2c(=O)[nH]c(-c3ccc([C@](C)(O)CO)cc3)cn12: 8.70

(I) Cc1ncc2c(=O)[nH]c(-c3ccc(C(C)(C)C)cc3)cn12
(II) Cc1ccc2c(=O)[nH]c(-c3ccc(C(C)(C)O)cc3)cn12
(III) CC(C)(O)c1ccc(-c2cn3c(CO)ccc3c(=O)[nH]2)cc1
(IV) Cc1ccc2c(=O)[nH]c(-c3ccc([C@@](C)(O)CCO)cc3)cn12
Output the entries ranked by pIC50 from maximum down to minimum. Give the labels in the order specified.
II, IV, I, III
(II: 9.05, IV: 8.80, I: 8.42, III: 8.09)

(A) CC(C)(O)c1ccc(-c2cn3cccc3c(=O)[nH]2)cc1
(B) CC(C)(O)c1ccc(-c2cn3cc(Cl)cc3c(=O)[nH]2)cc1
(C) CC(C)(O)c1ccc(-c2cn3cc(F)cc3c(=O)[nH]2)cc1
(D) Cc1cc2c(=O)[nH]c(-c3ccc(C(C)(C)O)cc3)cn2n1
Reorder: pIC50, max to min. Put the labels in the requested order and write them down.
C, A, B, D
(C: 8.54, A: 8.26, B: 8.03, D: 7.44)

###

# Test target: UniProtKB O95271
# Sequence (O95271 whole entry): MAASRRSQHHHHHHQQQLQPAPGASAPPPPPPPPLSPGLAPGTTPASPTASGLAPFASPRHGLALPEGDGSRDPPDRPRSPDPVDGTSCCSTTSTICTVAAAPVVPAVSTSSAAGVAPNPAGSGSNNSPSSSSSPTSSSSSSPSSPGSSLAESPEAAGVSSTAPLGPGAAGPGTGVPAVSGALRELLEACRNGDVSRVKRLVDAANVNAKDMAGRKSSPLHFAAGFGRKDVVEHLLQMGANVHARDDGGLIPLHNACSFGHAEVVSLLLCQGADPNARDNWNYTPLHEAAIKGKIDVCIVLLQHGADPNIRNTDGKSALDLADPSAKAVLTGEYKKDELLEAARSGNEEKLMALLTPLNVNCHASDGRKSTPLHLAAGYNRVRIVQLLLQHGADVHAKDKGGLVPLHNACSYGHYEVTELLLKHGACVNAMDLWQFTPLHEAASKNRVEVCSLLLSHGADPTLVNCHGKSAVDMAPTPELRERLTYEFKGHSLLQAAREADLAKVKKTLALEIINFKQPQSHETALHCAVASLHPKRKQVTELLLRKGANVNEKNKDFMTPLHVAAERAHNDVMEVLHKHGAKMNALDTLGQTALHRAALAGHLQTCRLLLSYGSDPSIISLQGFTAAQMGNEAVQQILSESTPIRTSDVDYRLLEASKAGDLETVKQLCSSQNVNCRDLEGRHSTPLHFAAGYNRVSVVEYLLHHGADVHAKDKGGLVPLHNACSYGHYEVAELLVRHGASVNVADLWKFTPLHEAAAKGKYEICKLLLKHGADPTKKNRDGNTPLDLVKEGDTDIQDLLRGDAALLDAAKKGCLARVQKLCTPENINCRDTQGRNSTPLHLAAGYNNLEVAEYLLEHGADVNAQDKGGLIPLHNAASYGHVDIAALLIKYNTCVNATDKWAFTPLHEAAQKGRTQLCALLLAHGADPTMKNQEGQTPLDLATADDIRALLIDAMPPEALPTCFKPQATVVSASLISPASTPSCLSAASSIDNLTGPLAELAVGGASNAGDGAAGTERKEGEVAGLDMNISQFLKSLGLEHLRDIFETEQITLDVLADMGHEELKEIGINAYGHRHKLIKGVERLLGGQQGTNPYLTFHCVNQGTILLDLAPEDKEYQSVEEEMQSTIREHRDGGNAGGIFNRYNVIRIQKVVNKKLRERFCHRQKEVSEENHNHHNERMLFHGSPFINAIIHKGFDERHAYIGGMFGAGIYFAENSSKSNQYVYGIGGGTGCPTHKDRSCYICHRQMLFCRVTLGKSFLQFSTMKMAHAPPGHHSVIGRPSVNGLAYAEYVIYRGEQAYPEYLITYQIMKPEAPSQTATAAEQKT
# Test description: Inhibition of TNKS1 (unknown origin) using biotinylated NAD as substrate assessed as inhibition of autoPARsylation activity incubated for 1 hr by ELISA
pIC50: −log10 of the molar value.
Quantity kind: pIC50

(a) CC(C)(O)c1ccc(-c2cn3cc(Cl)cc3c(=O)[nH]2)cc1
(b) Cc1ccc2c(=O)[nH]c(-c3ccc(C4(O)CC4)cc3)cn12
Kindly identify which of a and b has the larger recorded pIC50 value. Reply briefly: the label of your chosen item.
b

###

# Test description: Modulation of Wnt/beta-catenin signaling pathway in human DLD-1 cells assessed as induction of AXIN2 accumulation incubated for 24 hrs by ELISA
# Type: cell-based
# Experimental setup: DLD-1, 24 h
Quantity kind: EC50 (nM)

In the examples that follow, each entry is paired with its recorded EC50.
Cc1ccc2c(=O)[nH]c(-c3ccc([C@](C)(O)CCO)cc3)cn12: 18
Cc1ccc2c(=O)[nH]c(-c3ccc(C(C)(C)OCCO)cc3)cn12: 20
Cc1ccc2c(=O)[nH]c(-c3ccc(C(C)(C)O)cc3)cn12: 16
CC(C)(O)c1ccc(-c2cn3cc(Cl)cc3c(=O)[nH]2)cc1: 118
Cc1ncc2c(=O)[nH]c(-c3ccc(C(C)(C)C)cc3)cn12: 210
Cc1ccc2c(=O)[nH]c(-c3ccc(C4(O)CC4)cc3)cn12: 49
Cc1cc2c(=O)[nH]c(-c3ccc(C(C)(C)O)cc3)cn2c1: 230
Cc1ccc2c(=O)[nH]c(-c3ccc(C4(O)COC4)cc3)cn12: 28

(a) CC(C)(C)c1ccc(-c2cn3ccnc3c(=O)[nH]2)cc1
(b) Cc1ccc2c(=O)[nH]c(-c3ccc([C@@](C)(O)CO)cc3)cn12
(c) Cc1ccc2c(=O)[nH]c(-c3ccc([C@@](C)(O)CCO)cc3)cn12
In this exercise, place the 3 molecules in ascending sequence of their recorded EC50. In your reply, arrange the labels in the requested order.
c, b, a

Reference source: ChEMBL document CHEMBL5226325
